# System: transactivating tegument protein VP16 (Human herpesvirus 1)
# assay-protocol: VP16 transactivation reporter inhibitors, counter-screen for SRC2 inhibitor project, cell-based, luminescence, single concentration (AID 652007)
# condition-summary: cell-based VP16 transactivation luciferase reporter, at 8.9 µM, hits give high values
attribute-measured: inhibition (%)
Give just the number in %; leave the unit off.

Recorded inhibition, per entry:
{"columns": ["structure-as-smiles", "unit-of-measure", "inhibition"],
 "data": [
  ["N/C(=N\\OC(=O)c1ccc2ccccc2c1)c1ccccn1", "%", -38.3],
  ["Cc1cc(C)c(C#N)c(SCc2nnc(-c3ccccc3)o2)n1", "%", 46.2],
  ["COc1ccc(CC(=O)NNC(=O)c2ccc(Br)o2)cc1", "%", -9.53],
  ["COc1cccc(N2CCN(c3ncnc4c3cnn4-c3ccc(C)cc3C)CC2)c1", "%", 81.1],
  ["Cc1cc(N2CCOCC2)c2c(N)c(Br)cc(C)c2n1", "%", -7.31]
]}

The record that follows has no inhibition shown yet.
Return reported inhibition; argument: COc1ccc(/C=C2\SC(=S)N(CCCC(=O)Nc3ccc(O)cc3)C2=O)cc1
52.4
